- System: Hep3B
- procedure-details: XTT cell viability, Hep3B liver cancer cells
- Format: cell-based
- study-conditions: Homo sapiens; Hep3B liver cancer cell line; XTT test; compound in 30 mM HEPES pH=7, 0.25 to 10 μM; read-out: EC50 values on colon and liver cancer cells, Hep3B
pEC50: −log10 of the molar value.
parameter: pEC50

Looking up CC(C)c1ccc(-c2cn3nc(N4CCC(CN5CCN(C)CC5)CC4)sc3n2)cc1 [Z522-0251] , I see its pEC50 listed as 5.70 to 6.00

We now examine a further compound.
Looking up CC(C)c1ccc(-c2cn3nc(N4CCN(CC5CCN(C)CC5)CC4)sc3n2)cc1 [Z522-0249] , I see its pEC50 listed as 5.70 to 6.00

###

- System: FS (normal fibroblasts)
- procedure-details: XTT cell viability, FS (normal fibroblasts)
- Format: cell-based
- study-conditions: Fibroblast; FS normal (non malignant) fibroblasts; XTT test; compound in 30 mM HEPES pH=7, 0.25 to 10 μM
parameter: pEC50
Notebook: values listed as pEC50 are -log10 of the concentration (mol/L).

Looking up CC(C)c1ccc(-c2cn3nc(N4CCN(CC5CCN(C)CC5)CC4)sc3n2)cc1 , I see its pEC50 listed as 5.00

###

Listed here are molecules together with their documented pEC50.
- Tested on: SW48
- procedure-details: XTT cell viability, SW48 colon cancer cells
- Format: cell-based
- study-conditions: Homo sapiens; SW48 colon cancer cell line; XTT test; compound in 30 mM HEPES pH=7, 0.25 to 10 μM; read-out: EC50 values on colon and liver cancer cells, SW48
pEC50: −log10 of the molar value.

Looking up CC(C)c1ccc(-c2cn3nc(N4CCN(CC5CCN(C)CC5)CC4)sc3n2)cc1 , I see its pEC50 listed as 6.00 to 6.30

We now examine a further molecule.
Looking up CC(C)c1ccc(-c2cn3nc(N4CCC(CN5CCN(C)CC5)CC4)sc3n2)cc1 , I see its pEC50 listed as 6.00 to 6.30

###

Listed here are compounds together with their documented EC50.
- System: HCT116
- procedure-details: XTT cell viability, HCT116 colon cancer cells
- Format: cell-based
- study-conditions: Homo sapiens, HCT-116; HCT116 colon cancer cell line; XTT test; compound in 30 mM HEPES pH=7, 0.25 to 10 μM; read-out: EC50 values on colon and liver cancer cells, HCT116

Looking up CC(C)c1ccc(-c2cn3nc(N4CCN(CC5CCN(C)CC5)CC4)sc3n2)cc1 , I see its EC50 listed as 3000 nM

Looking up CC(C)c1ccc(-c2cn3nc(N4CCC(CN5CCN(C)CC5)CC4)sc3n2)cc1 , I see its EC50 listed as 3000 to 4000 nM
